Test system: Saccharomyces cerevisiae
protocol.notes: fraction of cells in G1 phase (DNA content, flow cytometry); higher = more cells with unreplicated DNA (G1 delay)
applied.conditions: temperature: 30 C; YPD; BY4741 PDR5+ SNQ2+; drug added to: actively dividing cells; 4.33 h
Counter-ions that a name gives are not always drawn.
observable: fraction of cells in G1 phase

# annotated cases, reported fraction of cells in G1 phase shown
| molecule | fraction of cells in G1 phase |
| --- | --- |
| CNCCC(Oc1ccc(C(F)(F)F)cc1)c1ccccc1 (stereo not drawn) [Fluoxetine HCl] (64.655 µM) | 0.43 |
| CC[C@@]1(O)C[C@H](O[C@H]2C[C@H](N(C)C)[C@H](O[C@H]3C[C@H](O)[C@H](O[C@H]4CCC(=O)[C@H](C)O4)[C@H](C)O3)[C@H](C)O2)c2c(cc3c(c2O)C(=O)c2c(O)cccc2C3=O)[C@H]1C(=O)OC [Aclarubicin] (24.6339 µM) | 0.431 |
| C=C1/C(=C\C=C2/CCC[C@]3(C)[C@@H]([C@H](C)CCCC(C)C)CC[C@@H]23)C[C@@H](O)C[C@@H]1O [Alfacalcidol] (49.9188 µM) | 0.469 |
| CC(C(O)c1ccc(O)cc1)N1CCC(Cc2ccccc2)CC1 (stereo not drawn) [Ifenprodil] (61.4525 µM) | 0.41 |
| CC(=O)[C@H]1CC[C@H]2[C@@H]3CCC4=CC(=O)CC[C@]4(C)[C@H]3CC[C@]12C [Progesterone] (63.5987 µM) | 0.501 |
| CO[C@H]1C[C@@H]2CC[C@@H](C)[C@@](O)(O2)C(=O)C(=O)N2CCCC[C@H]2C(=O)O[C@H]([C@H](C)C[C@@H]2CC[C@@H](O)[C@H](OC)C2)CC(=O)[C@H](C)/C=C(\C)[C@@H](O)[C@@H](OC)C(=O)[C@H](C)C[C@H](C)/C=C/C=C/C=C/1C [Rapamycin] (21.8771 µM) | 0.625 |
| CC(CN1c2ccccc2Sc2ccccc21)N(C)C (stereo not drawn) [Promethazine HCl] (70.317 µM) | 0.437 |
| CC(=O)[C@]1(O)Cc2c(O)c3c(c(O)c2[C@@H](O[C@H]2C[C@H](N)[C@H](O)[C@H](C)O2)C1)C(=O)c1ccccc1C3=O [Idarubicin] (40.2005 µM) | 0.14 |

What value of measured fraction of cells in G1 phase is listed for CC[C@H](C)C(=O)O[C@H]1C[C@@H](C)C=C2C=C[C@H](C)[C@H](CC[C@@H]3C[C@@H](O)CC(=O)O3)[C@H]21 [Lovastatin] (49.4375 µM) ?
0.402

What value of measured fraction of cells in G1 phase is listed for O=C(CCCN1CCC(O)(c2ccc(Cl)cc2)CC1)c1ccc(F)cc1 [Haloperidol HCl] (53.2093 µM) ?
0.462

What value of measured fraction of cells in G1 phase is listed for OC(Cn1cncn1)(Cn1cncn1)c1ccc(F)cc1F [Fluconazole] (65.3004 µM) ?
0.441

What value of measured fraction of cells in G1 phase is listed for C[C@]12CCC(=O)C=C1C=C[C@@H]1[C@@H]2CC[C@@]2(C)[C@H]1CC[C@@]21CCC(=O)O1 [Canrenone] (58.7429 µM) ?
0.453

What value of measured fraction of cells in G1 phase is listed for CC(=O)N1CCN(c2ccc(OCC3COC(Cn4ccnc4)(c4ccc(Cl)cc4Cl)O3)cc2)CC1 (stereo not drawn) [Ketoconazole] (37.6334 µM) ?
0.507

What value of measured fraction of cells in G1 phase is listed for CC(=O)OCC1OC([S-])C(OC(C)=O)C(OC(C)=O)C1OC(C)=O.CC[PH+](CC)CC.[Au+] (stereo not drawn) [Auranofin] (29.4771 µM) ?
0.52

What value of measured fraction of cells in G1 phase is listed for CC1CCc2c(N3CCC(O)CC3)c(F)cc3c(=O)c(C(=O)O)cn1c23 (stereo not drawn) [Nadifloxacin] (55.4956 µM) ?
0.43

What value of measured fraction of cells in G1 phase is listed for Fc1ccc([C@@H]2CCNC[C@H]2COc2ccc3c(c2)OCO3)cc1 [Paroxetine HCl] (60.7211 µM) ?
0.468

What value of measured fraction of cells in G1 phase is listed for COc1c(N2C[C@@H]3CCCN[C@@H]3C2)c(F)cc2c(=O)c(C(=O)O)cn(C3CC3)c12 [Moxifloxacin HCl] (45.6725 µM) ?
0.402

What value of measured fraction of cells in G1 phase is listed for O=c1[nH]c2ccccc2n1CCCN1CCN(C(c2ccccc2)c2ccccc2)CC1 [Oxatomide] (46.886 µM) ?
0.433

====

Tested on: Saccharomyces cerevisiae
protocol.notes: fraction of cells in G1 phase (DNA content, flow cytometry); higher = more cells with unreplicated DNA (G1 delay)
applied.conditions: temperature: 30 C; YPD; JTY2953 pdr5 snq2 (sensitized); drug added to: cultures diluted from stationary phase; 6-7 h
observable: fraction of cells in G1 phase
Field format: numeric only.

| molecule | fraction of cells in G1 phase |
| --- | --- |
| CC(C)C[C@H](NC(=O)[C@@H](COC(C)(C)C)NC(=O)[C@H](Cc1ccc(O)cc1)NC(=O)[C@H](CO)NC(=O)[C@H](Cc1c[nH]c2ccccc12)NC(=O)[C@H](Cc1cnc[nH]1)NC(=O)[C@@H]1CCC(=O)N1)C(=O)N[C@@H](CCCNC(=N)N)C(=O)N1CCC[C@H]1C(=O)NNC(N)=O [Goserelin acetate] (15.755 µM) | 0.485 |

What value of measured fraction of cells in G1 phase is listed for COCCOC(=O)C1=C(C)NC(C)=C(C(=O)OC/C=C/c2ccccc2)C1c1cccc([N+](=O)[O-])c1 (configuration not stated) [Cilnidipine] (40.6064 µM) ?
0.494

====

System: Saccharomyces cerevisiae
protocol.notes: fraction of cells in G1 phase (DNA content, flow cytometry); higher = more cells with unreplicated DNA (G1 delay)
applied.conditions: temperature: 30 C; YPD; JTY2953 pdr5 snq2 (sensitized); drug added to: actively dividing cells; 6 h
Where a name gives a salt, the structure may show the parent alone.
If the reported fraction of cells in G1 phase equals or exceeds 0.5, assign T. If not, assign F.

Consider the following illustrative entries.
| compound | cat |
| --- | --- |
| CCC(C)(C)c1ccc(CC(C)CN2C[C@@H](C)O[C@@H](C)C2)cc1 (stereo not given in full) [Amorolfine] (62.9883 µM) | F |
| C#C[C@]1(O)CC[C@H]2[C@@H]3CCC4=Cc5oncc5C[C@]4(C)[C@H]3CC[C@@]21C [Danazol] (59.2652 µM) | F |
| CC(=O)[C@H]1CC[C@H]2[C@@H]3CCC4=CC(=O)CC[C@]4(C)[C@H]3CC[C@]12C [Progesterone] (63.5987 µM) | T |
| CC/C(=C(/CC)c1ccc(O)cc1)c1ccc(O)cc1 [Diethylstilbestrol] (74.5271 µM) | F |
| Fc1ccc(C(c2ccc(F)cc2)N2CCN(C/C=C/c3ccccc3)CC2)cc1 [Flunarizine-2HCl] (41.8936 µM) | T |

Here is another compound to look at.
Assess whether reported fraction of cells in G1 phase for COc1cccc2c1C(=O)c1c(O)c3c(c(O)c1C2=O)C[C@@](O)(C(=O)CO)C[C@@H]3O[C@H]1C[C@H](N)[C@H](O)[C@H](C)O1 [Doxorubicin HCl] (34.4828 µM) sits at 0.5 or higher.
T

====

Test system: Saccharomyces cerevisiae
protocol.notes: fraction of cells in G1 phase (DNA content, flow cytometry); higher = more cells with unreplicated DNA (G1 delay)
applied.conditions: temperature: 30 C; YPD; JTY2953 pdr5 snq2 (sensitized); drug added to: cultures diluted from stationary phase; 6-7 h
Structures can show the parent of a compound that is named as a salt.
fraction of cells in G1 phase values by entry
Field format: numeric only.

| compound | fraction of cells in G1 phase |
| --- | --- |
| CN(Cc1cc(Br)cc(Br)c1N)C1CCCCC1 [Bromhexine HCl] (53.1721 µM) | 0.466 |
| CC(=O)OCC[N+](C)(C)C [Acetylcholine Cl] (136.789 µM) | 0.483 |
| CC(C)(O)c1ccccc1CC[C@@H](SCC1(CC(=O)O)CC1)c1cccc(/C=C/c2ccc3ccc(Cl)cc3n2)c1 [Montelukast] (34.1181 µM) | 0.532 |
| O=C(CCNNC(=O)c1ccncc1)NCc1ccccc1 [Nialamide] (67.0359 µM) | 0.512 |
| COc1ccc2c(c1)c(CC(=O)OCC(=O)O)c(C)n2C(=O)c1ccc(Cl)cc1 [Acemetacin] (48.0961 µM) | 0.489 |
| CC(C(=O)O)c1ccc(-c2ccccc2)c(F)c1 (stereo unspecified) [Flurbiprofen] (81.8773 µM) | 0.524 |
| CCC(=O)O[C@@H](O[P@](=O)(CCCCc1ccccc1)CC(=O)N1C[C@H](C2CCCCC2)C[C@H]1C(=O)O)C(C)C [Fosinopril] (35.4813 µM) | 0.501 |
| CC(C)Cn1cnc2c(N)nc3ccccc3c21 [Imiquimod] (83.2257 µM) | 0.484 |

What value of measured fraction of cells in G1 phase is listed for C[N+](C)(C)CCOC(=O)CCC(=O)OCC[N+](C)(C)C [Succinylcholine] (68.8691 µM) ?
0.467

What value of measured fraction of cells in G1 phase is listed for Nc1ccc(C(=O)O)c(O)c1 [4-aminosalicylic acid] (130.601 µM) ?
0.481

What value of measured fraction of cells in G1 phase is listed for COCc1c(C(C)C)nc(C(C)C)c(/C=C/[C@@H](O)C[C@@H](O)CC(=O)O)c1-c1ccc(F)cc1 [Cerivastatin] (43.5196 µM) ?
0.448

What value of measured fraction of cells in G1 phase is listed for COc1c(N2CCNC(C)C2)c(F)cc2c(=O)c(C(=O)O)cn(C3CC3)c12 (stereo unspecified) [Gatifloxacin] (53.276 µM) ?
0.335

What value of measured fraction of cells in G1 phase is listed for CC1COc2c(N3CCN(C)CC3)c(F)cc3c(=O)c(C(=O)O)cn1c23 (stereo unspecified) [Ofloxacin] (55.344 µM) ?
0.505

What value of measured fraction of cells in G1 phase is listed for CCOC(=O)c1ncn2c1CN(C)C(=O)c1cc(F)ccc1-2 [Flumazenil] (65.9423 µM) ?
0.507

What value of measured fraction of cells in G1 phase is listed for COc1ccc(C2CNC(=O)C2)cc1OC1CCCC1 (stereo unspecified) [Rolipram] (72.6347 µM) ?
0.497

What value of measured fraction of cells in G1 phase is listed for NS(=O)(=O)Cc1noc2ccccc12 [Zonisamide] (94.238 µM) ?
0.51

What value of measured fraction of cells in G1 phase is listed for Cc1ccc(-c2cc(C(F)(F)F)nn2-c2ccc(S(N)(=O)=O)cc2)cc1 [Celecoxib] (52.4412 µM) ?
0.863

What value of measured fraction of cells in G1 phase is listed for C#C[C@]1(O)CC[C@H]2[C@@H]3CCC4=CC(=O)CC[C@@H]4[C@H]3CC[C@@]21CC [Levonorgestrel] (64.009 µM) ?
0.509

What value of measured fraction of cells in G1 phase is listed for Nc1cc(-c2ccncc2)c[nH]c1=O [Amrinone] (106.838 µM) ?
0.474

What value of measured fraction of cells in G1 phase is listed for CCC(=O)O[C@]1(C(=O)CCl)[C@@H](C)C[C@H]2[C@@H]3CCC4=CC(=O)C=C[C@]4(C)[C@@]3(F)[C@@H](O)C[C@@]21C [Clobetasol propionate] (42.8282 µM) ?
0.526
